# ASSAY_METHOD_TEXT: risk score from prevalence in routine forensic samples and intoxication cases (G1, PSS, TSS)
# Set-up: species or system human
# EXPERIMENTAL_SETUP: mean Poison Severity Score (PSS) of all intoxications with the SCRA
# Text: Therefore, higher values indicate substances with a higher risk. […] To take into account the severity of symptoms and the contribution of the specific NPS, two further summands were introduced. The first is based on the PSS, the second on the TSS. […] The sum of these quotients was divided by the number of all prevalent quarters (q p ). Prevalent quarters were defined as quarters in which on average the substance was detected in more than 5% of the positive serum and urine samples. […]
OBSERVATION_TYPE: G2
Please state the value as a number alone, without comment.

Worked cases, G2 given:
* COC(=O)C(NC(=O)c1cn(CCCCF)c2ccccc12)C(C)(C)C (centres unmarked) | 2.0
* CCCCCn1cc(C(=O)c2ccc(CC)c3ccccc23)c2ccccc21 | 1.6
* COC(=O)C(NC(=O)c1cn(CCCCCF)c2ccccc12)C(C)(C)C (centres unmarked) | 2.1
* CC(C)C(NC(=O)c1nn(CC2CCCCC2)c2ccccc12)C(N)=O (centres unmarked) | 2.1
* CC(C)(c1ccccc1)n1ccc2c(c1=O)c1ccccc1n2CCCCCF | 2.0
* C=CCCCn1nc(C(=O)NC(C(=O)OC)C(C)(C)C)c2ccccc21 (centres unmarked) | 2.2
* CCCCCn1c2ccccc2c2c(=O)n(C(C)(C)c3ccccc3)ccc21 | 2.0
* CC(C)(C)C(NC(=O)c1nn(CC2CCCCC2)c2ccccc12)C(N)=O (centres unmarked) | 2.1
* O=C(Oc1cccc2cccnc12)c1cn(CCCCCF)c2ccccc12 | 1.9
* COC(=O)C(NC(=O)c1nn(CCCCCF)c2ccccc12)C(C)(C)C (centres unmarked) | 1.9

Let us examine a further case.
Could you please provide reported G2 for COC(=O)C(NC(=O)c1cn(CC2CCCCC2)c2ccccc12)C(C)(C)C (centres unmarked) ? Thanks!
2.2

====

# ASSAY_METHOD_TEXT: risk score from prevalence in routine forensic samples and intoxication cases (G1, PSS, TSS)
# Parameters: species or system human
# EXPERIMENTAL_SETUP: mean Toxicological Significance Score (TSS) of all intoxications with the SCRA
OBSERVATION_TYPE: G3
Please state the value as a number alone, without comment.

• CCCCCn1cc(C(=O)c2ccc(CC)c3ccccc23)c2ccccc21 = 2.7
• CC(C)C(NC(=O)c1nn(CC2CCCCC2)c2ccccc12)C(N)=O (stereo not drawn) = 2.3
• COC(=O)C(NC(=O)c1nn(CCCCCF)c2ccccc12)C(C)(C)C (stereo not drawn) = 2.6
• COC(=O)C(NC(=O)c1cn(CC2CCCCC2)c2ccccc12)C(C)(C)C (stereo not drawn) = 2.8
• COC(=O)C(NC(=O)c1cn(CCCCCF)c2ccccc12)C(C)(C)C (stereo not drawn) = 2.8

Let us examine a further case.
Could you please provide reported G3 for COC(=O)C(NC(=O)c1cn(CCCCF)c2ccccc12)C(C)(C)C (stereo not drawn) ? Thanks!
3.0

====

# TESTED_ON: hCB1 receptor (Homo sapiens)
# Sequence (P21554 whole entry): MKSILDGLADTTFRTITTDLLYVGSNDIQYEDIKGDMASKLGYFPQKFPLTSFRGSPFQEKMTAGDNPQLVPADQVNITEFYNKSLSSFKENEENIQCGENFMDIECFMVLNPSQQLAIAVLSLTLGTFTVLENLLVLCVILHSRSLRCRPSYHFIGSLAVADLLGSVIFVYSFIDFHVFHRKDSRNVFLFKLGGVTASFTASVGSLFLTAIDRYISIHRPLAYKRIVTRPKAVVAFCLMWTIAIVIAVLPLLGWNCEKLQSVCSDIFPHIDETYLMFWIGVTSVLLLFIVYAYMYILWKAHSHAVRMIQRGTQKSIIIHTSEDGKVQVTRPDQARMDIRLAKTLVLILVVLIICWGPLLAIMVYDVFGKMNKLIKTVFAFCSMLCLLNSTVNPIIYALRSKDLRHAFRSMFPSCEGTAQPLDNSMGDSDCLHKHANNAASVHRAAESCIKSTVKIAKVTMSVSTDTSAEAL
# ASSAY_METHOD_TEXT: competitive [3H]CP‐55940 radioligand binding assay (hCB1 receptor affinity)
# EXPERIMENTAL_SETUP: Ki [nM] (95% CI), [3H]CP‐55940 competition, hCB1 membrane preparations (HEK293‐EBNA), Cheng–Prusoff; 95% CI in brackets
OBSERVATION_TYPE: Ki (nM)
Express your answer in nM, writing the number without its unit.

Worked cases, Ki given:
- CC(C)C(NC(=O)c1nn(CC2CCCCC2)c2ccccc12)C(N)=O (stereo not shown): 0.145
- COC(=O)C(NC(=O)c1cn(CCCCCF)c2ccccc12)C(C)(C)C (stereo not shown): 0.321
- COC(=O)C(NC(=O)c1cn(CCCCF)c2ccccc12)C(C)(C)C (stereo not shown): 5.67

Could you please provide reported Ki for CC(C)C(NC(=O)c1nn(Cc2ccc(F)cc2)c2ccccc12)C(N)=O (stereo not shown) ? Thanks!
0.385

Could you please provide reported Ki for CCCCCn1cc(C(=O)c2cccc3ccccc23)c2ccccc21 [JWH‐018, reference compound] ? Thanks!
2.86

Could you please provide reported Ki for `CCCCCn1c2ccccc2c2c(=O)n(C(C)(C)c3ccccc3)ccc21` ? Thanks!
0.242

Could you please provide reported Ki for COC(=O)C(NC(=O)c1cn(CC2CCCCC2)c2ccccc12)C(C)(C)C (stereo not shown) ? Thanks!
0.935

Could you please provide reported Ki for COC(=O)C(NC(=O)c1nn(CCCCCF)c2ccccc12)C(C)(C)C (stereo not shown) ? Thanks!
0.0993

Could you please provide reported Ki for `O=C(Oc1cccc2cccnc12)c1cn(CCCCCF)c2ccccc12` ? Thanks!
0.0996

Could you please provide reported Ki for `CC(C)(c1ccccc1)n1ccc2c(c1=O)c1ccccc1n2CCCCCF` ? Thanks!
0.0991
